Molecular target: human platelet GPIIb/IIIa (Homo sapiens, UniProt P05106+P08514)
Construct: the adsorbed GPIIb/IIIa was eluted with buffer A containing 2 mM GRGDSPK peptide; from tissue
Sequence (P08514 32-887 limits assumed): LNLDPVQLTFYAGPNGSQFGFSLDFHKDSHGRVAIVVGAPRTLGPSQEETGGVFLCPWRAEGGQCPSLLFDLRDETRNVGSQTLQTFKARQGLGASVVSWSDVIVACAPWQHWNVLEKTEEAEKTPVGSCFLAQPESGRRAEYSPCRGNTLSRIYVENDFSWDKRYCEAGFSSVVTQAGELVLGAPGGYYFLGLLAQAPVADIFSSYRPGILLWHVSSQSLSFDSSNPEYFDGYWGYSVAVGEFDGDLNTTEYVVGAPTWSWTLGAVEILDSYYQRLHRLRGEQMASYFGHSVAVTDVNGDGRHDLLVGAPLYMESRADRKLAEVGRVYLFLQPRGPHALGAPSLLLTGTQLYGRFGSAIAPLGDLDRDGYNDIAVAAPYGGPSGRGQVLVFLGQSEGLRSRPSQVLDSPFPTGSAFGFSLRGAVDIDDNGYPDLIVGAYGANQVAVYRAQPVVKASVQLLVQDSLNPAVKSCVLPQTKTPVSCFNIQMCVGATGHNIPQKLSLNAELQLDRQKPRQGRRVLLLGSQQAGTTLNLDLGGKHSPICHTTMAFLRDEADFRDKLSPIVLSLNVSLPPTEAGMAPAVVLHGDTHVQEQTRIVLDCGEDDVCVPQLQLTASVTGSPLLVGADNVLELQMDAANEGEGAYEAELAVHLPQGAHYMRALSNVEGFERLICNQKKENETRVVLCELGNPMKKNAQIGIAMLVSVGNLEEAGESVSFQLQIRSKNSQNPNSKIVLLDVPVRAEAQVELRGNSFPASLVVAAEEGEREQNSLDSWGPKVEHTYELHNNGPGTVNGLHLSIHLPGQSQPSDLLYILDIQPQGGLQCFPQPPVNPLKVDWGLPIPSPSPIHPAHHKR
Sequence (P08514 891-1039 partner limits assumed): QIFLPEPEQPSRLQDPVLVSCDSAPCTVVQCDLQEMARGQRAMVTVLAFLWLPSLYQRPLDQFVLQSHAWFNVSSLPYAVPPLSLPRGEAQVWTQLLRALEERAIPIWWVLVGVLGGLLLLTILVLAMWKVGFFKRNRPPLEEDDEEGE
Sequence (P05106 27-788): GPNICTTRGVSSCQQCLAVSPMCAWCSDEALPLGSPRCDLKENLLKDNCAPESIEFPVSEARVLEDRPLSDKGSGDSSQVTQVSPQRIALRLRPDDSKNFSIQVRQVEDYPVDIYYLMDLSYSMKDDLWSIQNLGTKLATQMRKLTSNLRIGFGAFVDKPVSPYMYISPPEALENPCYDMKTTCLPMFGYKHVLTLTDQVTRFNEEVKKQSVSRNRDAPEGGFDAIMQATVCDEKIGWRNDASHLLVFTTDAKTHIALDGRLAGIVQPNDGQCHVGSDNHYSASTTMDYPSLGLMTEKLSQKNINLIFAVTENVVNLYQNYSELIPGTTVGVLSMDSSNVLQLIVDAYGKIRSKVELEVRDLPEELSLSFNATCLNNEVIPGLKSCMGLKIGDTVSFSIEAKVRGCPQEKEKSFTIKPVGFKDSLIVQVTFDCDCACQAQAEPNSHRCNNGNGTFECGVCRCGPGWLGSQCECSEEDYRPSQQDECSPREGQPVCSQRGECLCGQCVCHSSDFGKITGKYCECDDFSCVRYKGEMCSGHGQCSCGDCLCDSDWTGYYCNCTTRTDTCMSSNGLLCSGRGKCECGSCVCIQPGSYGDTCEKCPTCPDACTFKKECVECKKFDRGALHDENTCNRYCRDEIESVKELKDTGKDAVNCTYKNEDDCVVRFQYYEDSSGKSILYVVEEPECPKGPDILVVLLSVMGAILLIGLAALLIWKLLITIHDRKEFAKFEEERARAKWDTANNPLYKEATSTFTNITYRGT
Experiment: Inhibitory activity against binding between platelet GPIIb/IIIa and fibrinogen (solid phase receptor binding)
Conditions: purified human platelet GPIIb/IIIa, biotinylated human fibrinogen as ligand; read-out: IC50
Structures can show the parent of a compound that is named as a salt.
Kindly state IC50 for each of the entries shown.
Kindly answer with a numeric value in nM, unit omitted.

Lookup: GET /values?readout=IC50&item= O=C(O)COc1ccc(C(CNC(=O)c2cc3c(s2)CCNC3)Oc2cccnc2)cc1 (centres unmarked) [Example 5, trifluoroacetate]
Found: 10

Lookup: GET /values?readout=IC50&item= CN(CC(Oc1cccnc1)c1ccc(OCC(=O)O)c(OCC(=O)O)c1)C(=O)c1cc2c(s1)CCNC2 (centres unmarked) [Example 4, trifluoroacetate]
Found: 4.8

Lookup: GET /values?readout=IC50&item= O=C(O)COc1ccc(C(=O)CNC(=O)c2cc3c(s2)CCNC3)cc1COc1cccnc1 [Example 2, trifluoroacetate]
Found: 270

Lookup: GET /values?readout=IC50&item= O=C(O)COc1ccc(C(CNC(=O)c2cc3c(s2)CCNC3)Oc2cccnc2)cc1OCC(=O)O (centres unmarked) [Example 3, trifluoroacetate]
Found: 1.4

Lookup: GET /values?readout=IC50&item= O=C(O)COc1ccc(C(=O)CNC(=O)c2cc3c(s2)CCNC3)cc1Cn1ccnc1 [Example 1, trifluoroacetate (TFA)]
Found: 270
